These entries and their values trace back to paper PMC6058716.

molecular target: HparOBP49 (Holotrichia parallela, UniProt A0A0G2YD95); assay: Fluorescence competitive binding assay with 1-NPN probe, recombinant HparOBP49
Sequence (A0A0G2YD95 entry or part of it): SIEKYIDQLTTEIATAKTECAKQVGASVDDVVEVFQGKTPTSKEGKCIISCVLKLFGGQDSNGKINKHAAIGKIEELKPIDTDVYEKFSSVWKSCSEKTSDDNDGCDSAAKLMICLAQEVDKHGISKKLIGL
pIC50: −log10 of the molar value.
Measure name: pIC50

Compound	pIC50
CC1=CCC2CC1C2(C)C (stereo not drawn) [α-Pinene]	< 4.30
CCCCCC(=O)O [Hexanoic acid]	4.32
CCC/C=C/C=O [(E)-2-Hexenal]	< 4.30

Hello, I would appreciate it if you could give pIC50 for each entry below.
1. C=C1CC/C=C(\C)CC[C@@H]2[C@@H]1CC2(C)C [β-Caryophyllene]
2. O=Cc1ccccc1 [Benzaldehyde]
3. CCc1ccc(C(C)=O)cc1 [4′-Ethylacetophenone]

-- reply
["< 4.30", "< 4.30", "< 4.30"]
